Target: complex of 4.1G and CaM (human | , UniProt O43491 1-1005; P0DP23 1-149)
Assay: resonant mirror detection
readout type: pKd
# reply with the number alone; pKd is -log10 of concentration in mol/L

Incoming: So what does the record say about pKd for RYMYRHKGTYHTNEAKGTEFAESADAALQGDPALQDAGDSSRKEYFI (domain or fragment, UniProt P04921 82-128, looked up) [cytoplasmic domain of glycophorin C] ?
Outgoing: 6.81

Incoming: What would you report for cytoplasmic domain of CD44 (domain or fragment, UniProt P16070 671-742, looked up) NSRRRCGQKKKLVINSGNGAVEDRKPSGLNGEASKSQEMVHLVNKESSETPDQFMTADETRNLQNVDMKIGV ?
Outgoing: 6.71
